System: SK-MEL-5 melanoma
Assay: NCI tumour cell line growth inhibition, 48 h
measured metric: TGI (nM)
Please state the figure in nM; there is no need to write the unit.

Example cases with answers are listed next.
S=C(NCc1ccccn1)N/N=C/c1ccccn1 :: 1500
COc1cc2c(c(OC)c1OC)-c1cc(I)c(O)cc1[C@@H](NC(C)=O)CC2 :: 244
Cc1nc2c(C)ccc([N+](=O)[O-])c2c(NCCCN(C)C)c1C :: 27200
COC(=O)CC1(O)C(=O)OCc2c1cc1n(c2=O)Cc2c-1nc1ccccc1c2OC (stereo unspecified) :: 2740

We next turn to a different compound, shown below.
In: Reported TGI, compound O=C1C(Cl)=C(Nc2ccc(S(=O)(=O)c3ccc(NC4=C(Cl)C(=O)c5ccccc5C4=O)cc3)cc2)C(=O)c2ccccc21 : ____
Out: 3490

###

Known TGI of a selection of compounds
Tested on: OVCAR-3 ovarian
Experiment: NCI tumour cell line growth inhibition, 48 h
Numbers only; they are read as µM.

Consider the reported TGI for these compounds:
CCOC(=O)Cc1c(C(=O)OCC)[n+](=O)c2cc(Cl)c(Cl)cc2n1[O-] :: 5.04
O=C(Nc1ccn(C2CC(O)C(COC(c3ccccc3)(c3ccccc3)c3ccccc3)O2)c(=O)n1)c1ccccc1 (configuration not stated) :: 3.52
CC(C)=C[C@@H]1C[C@H](C)[C@H]2CC[C@H](C)c3c(O)c(OC4OC(C)C(O)C(O)C4O)c(C)c1c32 (some centres not stated) :: 8.43

In: Name the reported TGI value associated with the compound COc1ccc(/C=C/C(=O)c2c(-c3ccccc3)nn(C)c(=O)c2N2CC2C)cc1 (configuration not stated)
Out: 67.7

In: I have this compound here, Clc1ccc2c(NCCNc3nc(N4CCOCC4)nc4ccccc34)ccnc2c1 , and I need its recorded TGI.
Out: 3.53

In: Which TGI value belongs to COc1cc(-c2nc(-c3ccccc3)c(-c3ccccc3)[nH]2)cc(OC)c1O ?
Out: 34.2

In: Bench note: what TGI did CC1OC(OC2C(O)CC(OC3C(O)CC(OC4CCC5(C)C(CCC6C5CCC5(C)C(C7=CC(=O)OC7)C(O)CC65O)C4)OC3C)OC2C)CC(O)C1O (configuration not stated) show?
Out: 0.497

###

Tested on: DU-145 prostate
Experiment: NCI tumour cell line growth inhibition, 48 h
measured metric: TGI

Below are worked cases with known answers.
O=S(=O)(c1ccccc1)N1CCCC(c2ccccc2)CC1 (stereo not drawn) :: > 100 µM
O=CN1CCN(c2ccc3ccc(=O)[nH]c3n2)CC1 :: > 100 µM

In: Please report the recorded TGI for C=CCC(N[C@@H](CO)c1ccccc1)c1ccc2ccccc2n1 (stereo partly drawn) .
Out: > 100 µM

Data credit: PubChem BioAssay (NCI)
